Tested on: DMS-273
Test: NCI tumour cell line growth inhibition, 48 h
The source made the active and inactive calls. Cut-off read from the data, not from the text of the source: active = GI50 up to about 1.1 µM and inactive = higher.
Give GI50 for every item shown.

Q: Which GI50 is reported with DMS-273 for this entry: CCOC(=O)C1=C(C)N(NC(N)=O)C2(N)N(NC(N)=O)C(C)=C(C(=O)OCC)C12C(=O)OCC (stereo not given) ?
Result: > 100 µM (inactive)

Q: Which GI50 is reported with DMS-273 for this entry: O=C(CC1(O)C(=O)Nc2c(Cl)cc(Cl)cc21)c1ccccc1 (stereo not given) ?
Result: 45.7 µM (inactive)

Q: Which GI50 is reported with DMS-273 for this entry: COC1=CC(=Nc2c(Cl)cc(Cl)cc2OC(=O)c2ccc([N+](=O)[O-])cc2)C=C(OC)C1=O ?
Result: 13.6 µM (inactive)

Q: Which GI50 is reported with DMS-273 for this entry: NN/C(Cc1ccccc1)=N\NO ?
Result: > 100 µM (inactive)

Q: Which GI50 is reported with DMS-273 for this entry: CC1=C(c2cc(C(=O)Nc3cc(C)ccc3C)nc(N)n2)Sc2ccccc2N1 ?
Result: > 100 µM (inactive)

====

Test system: UACC-62
Assay: NCI tumour cell line growth inhibition, 48 h
Activity calls are given as the source filed them. Rule as the data show it: active = GI50 up to about 1.1 µM and inactive = higher.
Choose the fitting class; nothing outside true (active), false (inactive) is accepted.

Q: Please share the test call associated with COC1=CC(=Nc2c(Cl)cc(Cl)cc2OC(=O)c2ccc([N+](=O)[O-])cc2)C=C(OC)C1=O .
Result: false

Q: Please share the test call associated with CC(C)(C)n1c(=O)n(-c2ccccc2)n(C(C)(C)C)c1=O .
Result: false

Q: Please share the test call associated with Cc1ccc(C(=O)NCc2ccccc2)cc1/N=N/N(C)C .
Result: false

Q: Please share the test call associated with CC1[C@@H](OCc2ccccc2)COC(=O)N1Cc1ccccc1 (stereo partly drawn) .
Result: false

Q: Please share the test call associated with COC(=O)c1c(OC(=O)c2ccccc2)noc1CC(=O)OC1C=CCCC1 (stereo not drawn) .
Result: false

Q: Please share the test call associated with COC(=O)[C@H](CC(C)C)NC(=O)[C@H](Cc1ccccc1)N1CC2C=CC1C2 (stereo partly drawn) .
Result: false

Q: Please share the test call associated with CC[C@@H]1CSC(/C=C/C2OC3OC(C)(C)OC3C3OC(C)(C)OC23)=N1 (stereo partly drawn) .
Result: false

Q: Please share the test call associated with Cc1ccc2c(c1)OC1Nc3ccccc3C1=C2O (stereo not drawn) .
Result: false

Q: Please share the test call associated with Nc1ncc(CN2CCCC2)c(-c2ccccc2O)n1 .
Result: false

Q: Please share the test call associated with CCN(CC)C(=S)SS(=O)(=O)c1ccc([N+](=O)[O-])cc1 .
Result: false

Q: Please share the test call associated with C=C1[C@@H]2CCC3[C@]4(C)C(CC[C@@]5(C)C(=O)O[C@H](O)[C@@H]45)[C@H](O)[C@]3(C2)[C@H]1OC1OC(CO)C(O)C(O)C1O (stereo partly drawn) .
Result: false

Q: Please share the test call associated with CC1(C)CCC(C)(C)c2c1ccc(O)c2Cc1c(O)ccc2c1C(C)(C)CCC2(C)C .
Result: false

Q: Please share the test call associated with O=C(NC12CC3CC(CC(C3)C1)C2)C(=O)c1c[nH]c2ccc([N+](=O)[O-])cc12 .
Result: false

Q: Please share the test call associated with COc1ccc(C2SCC(=O)N2NC(=O)c2ccc(NC(C)=O)cc2)cc1 (stereo not drawn) .
Result: false

Q: Please share the test call associated with COc1ccc(C(O)c2ccc3c(c2)OCO3)cc1 (stereo not drawn) .
Result: false

Q: Please share the test call associated with CC(C)COC(=O)N1N=NC2C3OC(CC3=O)C21 (stereo not drawn) .
Result: false

Q: Please share the test call associated with Cc1ccn2c(c1)nc1nc3ccccc3nc12 .
Result: false

Q: Please share the test call associated with CSC(=N\c1ccccc1)/N=C(\SCc1ccccc1)N(C)C .
Result: true

Q: Please share the test call associated with COc1cc2c(NCCCCCO)ncnc2c(OC)c1OC .
Result: false

Q: Please share the test call associated with COc1ccc(C(=O)c2sc(Nc3ccccc3)nc2N)cc1 .
Result: false

Q: Please share the test call associated with Oc1ncc(Cl)c(O)n1 .
Result: false

Q: Please share the test call associated with CC1(C)CCCCCC(O)C(O)CCC(C)(C)C1=O (stereo not drawn) .
Result: false

Q: Please share the test call associated with COc1ccc(/N=N/C(=O)NC(CC(C)C)C(=O)NC(Cc2ccccc2)C(=O)O)cc1 (stereo not drawn) .
Result: true

Q: Please share the test call associated with CCOC(=O)CC1(O)CCCCC1(Sc1ccc(C)cc1)Sc1ccc(C)cc1 (stereo not drawn) .
Result: false

Q: Please share the test call associated with CCOC(=O)Cc1cc(=O)[nH]c(-n2[nH]c(C)c(CCO)c2=O)n1 .
Result: false

Q: Please share the test call associated with CC(=O)Nc1ccc(NCC(=O)Nn2cnc3ccc(S(=O)(=O)Nc4ccc(NC(C)=O)cc4)cc3c2=O)cc1 .
Result: false

Q: Please share the test call associated with O=c1[nH]c2ccc(Cl)cc2c2oc(-c3ccccc3)nc12 .
Result: false

Q: Please share the test call associated with CCOC(=O)CCC(NC(=O)C(CCC(=O)OCC)NC(=O)C(Cc1ccc([N+](=O)[O-])cc1)NC(C)=O)C(=O)NNC(=O)OC(C)(C)C (stereo not drawn) .
Result: false

Q: Please share the test call associated with c1sc(NC2=NCCO2)c2c1CCCC2 .
Result: false

Q: Please share the test call associated with O=C1NCN(c2ccccc2)C12CCN(CCCN1CCN(CCOC(c3ccc(F)cc3)c3ccc(F)cc3)CC1)CC2 .
Result: false

Q: Please share the test call associated with C#CCSc1cnc2ccccc2c1Sc1c[nH]c2ccccc2c1=O .
Result: false

Q: Please share the test call associated with CC(C(=O)c1ccccc1)C1(O)C(=O)Nc2ccccc21 (stereo not drawn) .
Result: false

Q: Please share the test call associated with Cc1oc2c(c1C)S(=O)(=O)C(C#N)=C(c1ccccc1)N2 .
Result: false

====

Test system: SK-OV-3
Experiment: NCI tumour cell line growth inhibition, 48 h
The source made the active and inactive calls. Rule as the data show it: active = GI50 up to about 1.1 µM and inactive = higher.
parameter: GI50

Q: Suppose we examine the compound CCOC(=O)c1cc2c3c(c(C(C)=O)c(O)c2[nH]1)N(C(C)=O)CC3 ; what GI50 value has been reported?
Result: > 100 µM (inactive)

Q: Suppose we examine the compound CCCC(=O)N/S(=N/S(=O)(=O)c1ccc(Cl)cc1)C(Cl)(Cl)Cl (stereo not given) ; what GI50 value has been reported?
Result: > 100 µM (inactive)

Q: Suppose we examine the compound O=c1cc(N2CCOCC2)oc2c(-c3ccccc3)cccc12 [LY-294002] ; what GI50 value has been reported?
Result: 14.2 µM (inactive)

Q: Suppose we examine the compound COc1c(C(=O)/C(=N/Nc2ccc(C(=O)O)cc2)C(C)=O)c(O)cc2occc12 ; what GI50 value has been reported?
Result: > 100 µM (inactive)

Q: Suppose we examine the compound CCCCCCc1cc2cc(-c3cn4ccsc4n3)c(=O)oc2cc1O ; what GI50 value has been reported?
Result: > 100 µM (inactive)

====

System: HCT-15
Lab note: cut-off is 6 µM. Strictly less in GI50 is met. Exactly 6 µM or more is not met.

Q: Item COc1cc(C2c3cc4c(cc3OC3(O)COC(=O)C23)OCO4)cc(OC)c1OC (stereo not given) : GI50 beneath 6 µM, strictly?
Result: not met

Q: Item O=C(NCCc1ccccn1)c1ccc2cc(C(=O)N3CC(CCl)c4ccc([N+](=O)[O-])cc43)[nH]c2c1 (stereo not given) : GI50 beneath 6 µM, strictly?
Result: not met

Q: Item CC(C)CCC(=O)c1ccoc1 : GI50 beneath 6 µM, strictly?
Result: not met

Q: Item O=C(CC1(O)C(=O)Nc2ccccc21)c1ccc(Cl)c(Cl)c1 (stereo not given) : GI50 beneath 6 µM, strictly?
Result: not met

Q: Item O=C(N/N=C/c1ccc2c(c1)CCC2)c1ccccc1O : GI50 beneath 6 µM, strictly?
Result: not met

Q: Item COc1ccc(OC)c(C(Cc2ccnc3ccccc23)Cc2ccnc3ccccc23)c1 : GI50 beneath 6 µM, strictly?
Result: not met

Q: Item CC1(C)CCC(C)(C)c2c1ccc(O)c2Cc1c(O)ccc2c1C(C)(C)CCC2(C)C : GI50 beneath 6 µM, strictly?
Result: met

Q: Item O=C(CC(=O)n1nc(-c2ccccc2)c(/N=N/c2ccccc2C(=O)O)c1-c1ccccc1)Nc1ccc(Cl)cc1 : GI50 beneath 6 µM, strictly?
Result: not met

Q: Item CN(C)CCNC(=O)c1cccc2[nH]c(-c3ccc(Cl)cc3)nc12 : GI50 beneath 6 µM, strictly?
Result: met

Q: Item CNc1ccc(Cl)cc1S(=O)(=O)c1ccccc1[N+](=O)[O-] : GI50 beneath 6 µM, strictly?
Result: not met

====

System: KM-20L2
Experiment: NCI tumour cell line growth inhibition, 48 h
Active and inactive are the calls of the source. Rule as the data show it: active = GI50 up to about 1.1 µM and inactive = higher.
parameter: GI50

Q: Which GI50 is reported with KM-20L2 for this entry: CCOC(=O)C1S/C(=N/c2ccc(Cl)cc2C)N=C1C (stereo not drawn) ?
Result: 17.4 µM (inactive)

Q: Which GI50 is reported with KM-20L2 for this entry: CC1(CO)OC1COCc1ccccc1 (stereo not drawn) ?
Result: > 100 µM (inactive)

Q: Which GI50 is reported with KM-20L2 for this entry: O=C(O)CNS(=O)(=O)c1ccc(NC(=O)Nc2ccccc2)cc1 ?
Result: > 100 µM (inactive)

Q: Which GI50 is reported with KM-20L2 for this entry: O=[N+]([O-])c1nccn1COCCBr ?
Result: > 100 µM (inactive)

Q: Which GI50 is reported with KM-20L2 for this entry: c1ccc2[nH]c(-c3nc4ccccc4o3)nc2c1 ?
Result: > 100 µM (inactive)

Q: Which GI50 is reported with KM-20L2 for this entry: COc1ccc(C=O)c([N+](=O)[O-])c1 ?
Result: 14 µM (inactive)

Q: Which GI50 is reported with KM-20L2 for this entry: Nc1nc(N)c2ncn(CCCC(c3ccccc3)P(=O)(O)O)c2n1 (stereo not drawn) ?
Result: > 100 µM (inactive)

Q: Which GI50 is reported with KM-20L2 for this entry: COc1cc(/C=C2\[C@H]3c4c(c(OC)c(C)c(OC)c4OC)C[C@@H](C(=O)N2Cc2ccccc2)N3C(=O)OCC(C)C)c(OC)c(C)c1OC ?
Result: > 69.8 µM (inactive)

Q: Which GI50 is reported with KM-20L2 for this entry: CCCCCCCCCCCCCC(=O)OCC1OC(=O)CC1O (stereo not drawn) ?
Result: > 100 µM (inactive)

Q: Which GI50 is reported with KM-20L2 for this entry: Cc1cc(NS(=O)(=O)c2ccc(NC(=O)c3ccc(Cl)c4c(Nc5ccc(S(N)(=O)=O)cc5)c5ccccc5nc34)cc2)no1 ?
Result: 24.5 µM (inactive)

Q: Which GI50 is reported with KM-20L2 for this entry: COC(=O)Nc1nc2cc(Br)ccc2[nH]1 ?
Result: 21.2 µM (inactive)

Q: Which GI50 is reported with KM-20L2 for this entry: CC1=C(c2cc(C(=O)Nc3cc(C)ccc3C)nc(N)n2)Sc2ccccc2N1 ?
Result: > 100 µM (inactive)

Q: Which GI50 is reported with KM-20L2 for this entry: COc1cc(Br)c(CC2(C#N)c3ccccc3C3C(N2C(=O)c2ccccc2)C3(Cl)Cl)cc1OC (stereo not drawn) ?
Result: > 65.5 µM (inactive)

// data source = ChEMBL document CHEMBL1201862
